tested on: Ps. aerug. MGH-2; assay: In vitro antibacterial activity, MIC (modified Autotiter method); type: cell-based, Pseudomonas aeruginosa; conditions: 18-20 hours at 37° C.
Please use TRUE for MIC Ps. aerug. MGH-2 under 20 µg/mL and FALSE for everything else, ties included.

Reference set, count: 5
>>> df
                                   compound  classification
0  CCCCCCCNc1cc[n+](CCCCCC[n+]2ccc(NCCCCCCC)cc2)cc1 [Example 62C]           FALSE
1  CCCCCCCCNc1cc[n+](CCCCCCCCCC[n+]2ccc(NCCCCCCCC)cc2)cc1 [Example 10C]            TRUE
2  CCCCCCCCNc1cc[n+](CCCCCCCCCC[n+]2ccc(NCCCCCCCC)cc2)cc1 [Example 9D]            TRUE
3  CCCCCCCNc1cc[n+](CCCCCCCCCCCC[n+]2ccc(NCCCCCCC)cc2)cc1            TRUE
4  CCCCCCCNc1cc[n+](CCCCCCCCCCCCCC[n+]2ccc(NCCCCCCC)cc2)cc1            TRUE

**Query** Lab note: confirm whether the reported MIC Ps. aerug. MGH-2 for this compound is below 20 µg/mL, equality not counting. compound: `CCCCCCCCCNc1cc[n+](CCCCCC[n+]2ccc(NCCCCCCCCC)cc2)cc1`
**Result** TRUE

**Query** Lab note: confirm whether the reported MIC Ps. aerug. MGH-2 for this compound is below 20 µg/mL, equality not counting. compound: `CCCCCCCCNc1cc[n+](CCCCCC[n+]2ccc(NCCCCCCCC)cc2)cc1`
**Result** FALSE

**Query** Lab note: confirm whether the reported MIC Ps. aerug. MGH-2 for this compound is below 20 µg/mL, equality not counting. compound: `CCCCCCCNc1cc[n+](CCCCCCCCC[n+]2ccc(NCCCCCCC)cc2)cc1`
**Result** FALSE

**Query** Lab note: confirm whether the reported MIC Ps. aerug. MGH-2 for this compound is below 20 µg/mL, equality not counting. compound: `CCCCCCNc1cc[n+](CCCCCCCCCCCC[n+]2ccc(NCCCCCC)cc2)cc1`
**Result** FALSE

**Query** Lab note: confirm whether the reported MIC Ps. aerug. MGH-2 for this compound is below 20 µg/mL, equality not counting. compound: `CCCCCCCNc1cc[n+](CCCCCCCCCC[n+]2ccc(NCCCCCCC)cc2)cc1`
**Result** TRUE

**Query** Lab note: confirm whether the reported MIC Ps. aerug. MGH-2 for this compound is below 20 µg/mL, equality not counting. compound: CCCCCCCNc1cc[n+](CCCCCCCC[n+]2ccc(NCCCCCCC)cc2)cc1 [Example 23]
**Result** FALSE

----------
Quick reference: MIC of the listed items.
system: C. albicans Wisc.; assay: In vitro antifungal activity, MIC (modified Autotiter method); format: cell-based, Candida albicans; conditions: Candida albicans, 20 h, 18-20 hours at 37° C.; read-out: MIC C. albicans Wisc.

**Query** Please look up its MIC: `CCCCCCCCNc1cc[n+](CCCCCC[n+]2ccc(NCCCCCCCC)cc2)cc1`
**Result** 1.95 µg/mL

**Query** Please look up its MIC: Nc1cc[n+](CCCCCCCC[n+]2ccc(N)cc2)cc1 [I, reference compound]
**Result** 125 µg/mL
